The entries below are paired with their reported pKd.
assayed-system: T1, human CD47 (human, UniProt Q08722 19-292)
T1 construct: On human RBCs, on OV10 cells transfected with human CD47 (OV10-hCD47) and on Jurkat T cells; also called hCD47; integrin-associated protein (IAP)
T1 sequence (Q08722 other isoform, or with tags, fused parts or gaps limits assumed): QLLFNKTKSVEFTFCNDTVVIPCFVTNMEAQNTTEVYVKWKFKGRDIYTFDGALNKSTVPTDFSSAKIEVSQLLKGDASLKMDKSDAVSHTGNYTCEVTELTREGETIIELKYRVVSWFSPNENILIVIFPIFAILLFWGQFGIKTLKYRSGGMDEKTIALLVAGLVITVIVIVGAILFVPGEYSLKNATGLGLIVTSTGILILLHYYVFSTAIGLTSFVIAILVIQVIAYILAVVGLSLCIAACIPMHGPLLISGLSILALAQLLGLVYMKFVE
test-method-notes: flow cytometry on human RBCs, apparent affinity by non-linear fit of median fluorescence
pKd: −log10 of the molar value.

binder	pKd
Vx10 (antibody, V domains shown, Murine mAb; also called murine anti-CD47 mAb Vx10) VH: QVQLQQSGAELAKPGASVKMSCKASGYTFTNYWIHWIKQRPGQGLEWIGYIDPNTVYTDYNQRFEDKATLTADKSSNTAYMQLNSLTSEDSAVYYCSRGGKRGVDSWGQGTSVTVSS VL: DVVMTQTPLSLPVSLGDQASISCRSSQSLENSNGDTYLNWYLQKPGQSPQLLIYRVSNRFSGVLDRFSGSGSGTDFTLQISRVEAEDLGVYFCLQVSHVPWTFGGGTNLEIK	9.34
Vx12 (antibody, V domains shown, Murine mAb; also called murine anti-CD47 mAb Vx12) VH: QVQLLQSGAQLVKPGTSMKLSCKASGYTFTNYFLYWVKQRPGQGLEWIGDINPNAGSTNLNERFKSKATLTVDKSSSTAYLQLSGLTSEDSAVYYCTRGGYTMDYWGQGTSVTVSS VL: DVVMTQIPLSLPVSLGDQASISCRSSQSLVHSNGNTYLHWYLQKPGQSPKLLIYKVSNRFSGVPDRFSGSGSGTDFTLKISRVEAEDLGVYFCSQSTHVPRTFGGGTKLEIK	9.42
Vx11 (antibody, V domains shown, Murine mAb; also called murine anti-CD47 mAb Vx11) VH: EVQLQQSGAQLVKPGTSMKLSCKASGYTFTNYFLYWVKQRPGQGLEWIGDINPNAGSTNLNERFKSKATLTVDKSSSTAYLQLSGLTSEDSAVYYCTRGGYTMDYWGQGTSVTVSS VL: DVVMTQTPLSLPVSLGDQASISCRSSQSLENSNGDTYLNWYLQKPGQSPQLLIYRVSNRFSGVLDRFSGSGSGTDFTLQISRVEAEDLGVYFCLQVSHVPWTFGGGTNLEIK	10.04
Vx13 (antibody, V domains shown, Murine mAb; also called murine anti-CD47 mAb Vx13) VH: EVQLQQSGPEVVKPGASVRISCKASDYTFTNYYIHWVRQRPGQGLEWIGWIYPGNNNNKYNEKFKGKATLTEDTSSSTAYMQLSSLTSEDSAVYFCARGGYTMDYWGQG VL: DVLMTQTPLSLPVSLGDQASISCRSSQSLVHSNGNTYLHWYLQKPGQSPNLLIYKVSNRFSGVPDRFSGSGSGTDFTLKINRVETEDLGIYFCSQSTHVLTFGAG	9.06
